# TESTED_TARGET: T1, PARD3B_1, Q8TEW8
# T1 sequence (Q8TEW8 196-299, limits assumed, looked up): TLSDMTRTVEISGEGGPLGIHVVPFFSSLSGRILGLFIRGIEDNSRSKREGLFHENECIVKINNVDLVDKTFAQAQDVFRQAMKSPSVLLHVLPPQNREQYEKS
# TEST: holdup assay
# Set-up: key: below the threshold = too weak to quantify, mostly under pKd 3.1 to 4
# RUN_CONDITIONS: plain residues with an end cap or a label only (N-terminal biotin on a linker: ado-ado)
READOUT_TYPE: pKd
API doc: respond with a numeric literal and nothing else, no unit.

For orientation, consider the following solved cases.
[[record]]
binder = "GDSSRKEYFI [GYPC, P04921]"
quantitative_result = 4.39

[[record]]
binder = "NNMAFETTHF [SLC5A12, Q1EHB4]"
quantitative_result = 4.49

[[record]]
binder = "KIEDVEITLV [FCHSD2, O94868]"
quantitative_result = 3.91


The binder listed as ADEMICITTL [CACNA1D, Q01668] shows pKd equal to 4.84
